Property: HD50 (concentration necessary to lyse 50% of the cells); scope: individual compounds
Test system: Human red blood cells (RBCs)
experimental.protocol: Hemolytic activity
Type: cell-based
applied.conditions: Tables 18-21
Method: Each assay was carried out in 96-well culture tissue plates. Four wells per plate contain 125 μl of a non-peptide positive control (1% Triton in de-ionized water), and four wells per plate contain 125 μl of a control blank, phosphate buffered saline (PBS). The hemolytic peptide melittin was used as comparative control. […] The release of hemoglobin resulting from the cell lysis was determined by measuring the OD at 414 nm of 100 μl of the supernatant.
Square brackets hold non-standard residues; d marks the D form. Peptide text beside a SMILES is read from it. * marks the point of attachment. Fmoc = O=C(OCC1c2ccccc2-c2ccccc21)*
Write the answer as a number in µg/mL, unit excluded.

>  <compound>
NCCCC[C@H](NC(=O)OCC1c2ccccc2-c2ccccc21)C(=O)N[C@@H](Cc1c[nH]c2ccccc12)C(=O)N[C@@H](CCCCN)C(=O)N[C@H](CO)C(N)=O [(KFmoc)WKs-NH2] (Fmoc-KWK[dS]-NH2)

>  <reported.result>
296

$$$$
>  <compound>
CC[C@@H](C)[C@@H](NC(=O)[C@@H](CS)NC(=O)[C@H](CCCCN)NC(=O)OCC1c2ccccc2-c2ccccc21)C(=O)N[C@@H](Cc1ccccc1)C(N)=O [(KFmoc)ciF-NH2] (Fmoc-K[dC][dI]F-NH2)

>  <reported.result>
295

$$$$

Name the reported HD50 (concentration necessary to lyse 50% of the cells) value associated with the compound NCCCC[C@H](NC(=O)OCC1c2ccccc2-c2ccccc21)C(=O)N[C@@H](Cc1c[nH]c2ccccc12)C(=O)N[C@@H](CCCCN)C(=O)N[C@@H](Cc1ccc(O)cc1)C(N)=O [(KFmoc)WKY-NH2] (Fmoc-KWKY-NH2)
156

Reported HD50 (concentration necessary to lyse 50% of the cells), compound NCCCC[C@H](NC(=O)OCC1c2ccccc2-c2ccccc21)C(=O)N[C@@H](Cc1c[nH]c2ccccc12)C(=O)N[C@@H](CCCCN)C(=O)N[C@H](Cc1c[nH]cn1)C(N)=O [(KFmoc)WKh-NH2] (Fmoc-KWK[dH]-NH2) : ____
313

====

Recorded IC50 values for a group of substances are listed next.
tested.target: melittin (Apis mellifera)
Sequence (P01501 44-69 limits assumed): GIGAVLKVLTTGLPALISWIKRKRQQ
experimental.protocol: cell-based
applied.conditions: read-out: IC50, inhibition of melittin (converted)
Ends that are not written are not given here.

Worked cases, IC50 given:
>  <substance>
Ac-IVIFFG-NH2 [Ac-IVIFFG-NH2]

>  <IC50>
29.9 µM

$$$$
>  <substance>
Ac-IVILTQ-NH2 [Ac-IVILTQ-NH2]

>  <IC50>
15.1 µM

$$$$
>  <substance>
Ac-IVIFFD-NH2 [Ac-IVIFFD-NH2]

>  <IC50>
12.6 µM

$$$$
>  <substance>
Ac-IVILLM-NH2 [Ac-IVILLM-NH2]

>  <IC50>
27 µM

$$$$
>  <substance>
DDEITF-NH2 [DDEITF-NH2]

>  <IC50>
1630 µM

$$$$

Bench note: what IC50 did Ac-IVIFFI-NH2 [Ac-IVIFFI-NH2] show?
105 µM

// returns reported IC50 for input Ac-IQIYFE-NH2 [Ac-IQIYFE-NH2]
19.9 µM

Given the substance Ac-IVILTN-NH2 [Ac-IVILTN-NH2] , what is its reported IC50?
19.6 µM

What value of measured IC50 is listed for Ac-IVILTY-NH2 [Ac-IVILTY-NH2] ?
23.6 µM
